Target Entity: T1, human interleukin-2 (recombinant human IL-2, teceleukin) (human, UniProt P60568 21-153)
T1 construct: also called hIL-2; rhIL-2
T1 sequence (P60568 21-153 limits assumed): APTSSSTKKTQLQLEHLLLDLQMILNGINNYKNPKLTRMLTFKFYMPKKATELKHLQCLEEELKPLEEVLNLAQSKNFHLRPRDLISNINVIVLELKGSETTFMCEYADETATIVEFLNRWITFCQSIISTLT
Assay Method Text: SPR
Metric Name: Kd (nM)
Your answer should be a plain number; it is taken to be in nM.

Q) Can you look up the measured Kd of UFKA-22-11 (antibody, human IgG1, V domains shown) VH: EVQLVESGGGLVKPGGSLRLSCAASGFSFSNYAMSWVRQAPGKGLEWVSLISGGGSYSYYPDSLKGRFTISRDSAKNSLYLQMNSLRAEDTAMYYCARHMGYNDYLAWFAYWGQGTLVTVSS VL: DIVMTQSPDSLAVSLGERATINCKSSQSLLNSANQKNYLAWYQQKPGQPPKLLIYFASTRESGVPDRFIGSGSGTDFTLTISSLQAEDVAVYYCQQYYSAPPWTFGGGTKVEIK for me?
A) 5.31

Q) Repeat for the following binder: UFKA-22-08 (antibody, human IgG1, V domains shown) VH: EVQLVESGGGLVKPGGSLRLSCAASGFSFSNYAMSWVRQAPGKGLEWVSLISGGGSYSYYPDSLKGRFTISRDSAKNSLYLQMNSLRAEDTAVYYCARHMGYNDYLAWFAYWGQGTLVTVSS VL: DIVMTQSPDSLAVSLGERATINCKSSQSLLNSANQKNYLAWYQQKPGQPPKLLIYFASTRESGVPDRFIGSGSGTDFTLTISSLQAEDVAVYYCQQYYSAPPWTFGGGTKVEIK
A) 5.33

Q) Repeat for the following binder: UFKA-22-12 (antibody, human IgG1, V domains shown) VH: EVQLVESGGGLVKPGGSLRLSCAASGFSFSNYAMSWVRQAPGKGLEWVSLISGGGSYSYYPDSLKGRFTISRDNAKNSLYLQMSSLRAEDTAMYYCARHMGYNDYLAWFAYWGQGTLVTVSS VL: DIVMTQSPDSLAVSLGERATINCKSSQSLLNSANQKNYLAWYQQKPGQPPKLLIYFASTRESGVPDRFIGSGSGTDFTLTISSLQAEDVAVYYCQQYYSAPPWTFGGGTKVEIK
A) 5.05

Origin of the recorded values: patent US20230303680A1
